Target: T1, cynomolgus IL-17A (cynomolgus, UniProt Q16552 24-155 (human entry), limits assumed)
T1 chain: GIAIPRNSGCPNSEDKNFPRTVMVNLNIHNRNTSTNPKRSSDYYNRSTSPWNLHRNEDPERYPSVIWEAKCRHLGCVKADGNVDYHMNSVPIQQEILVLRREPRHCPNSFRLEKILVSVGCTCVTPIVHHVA
Experiment: cell-based or functional assay

binder	IL-8 production (NHDF), IC50 (nM)
mAb7146 (antibody, human IgG1, lambda, V domains shown, Framework-engineered mAb; also called engineered form of MOR8160) VH: QVQLLESGGGLVQPGGSLRLSCAASGFTFSSYAMSWVRQAPGKGLEWVSTISMTSGFTYYADSVKGRFTISRDNSKNTLYLQMNSLRAEDTAVYYCARQLTLDVWGQGTLVTVSS VL: QSVLTQPPSVSVAPGQTARISCSGDNLGDKYANWYQQKPGQAPVLVIYDDIDRPSGIPERFSGSNSGNTATLTISGTQAEDEADYYCGSYDFFLGLIVFGGGTKLTVLG	0.14

// data source = patent US20110236390A1
